Where these numbers come from: ChEMBL document CHEMBL1154529

Items are presented alongside their recorded pKi.
target of assay: Mu-type opioid receptor (Rattus norvegicus)
Sequence (P33535 whole entry): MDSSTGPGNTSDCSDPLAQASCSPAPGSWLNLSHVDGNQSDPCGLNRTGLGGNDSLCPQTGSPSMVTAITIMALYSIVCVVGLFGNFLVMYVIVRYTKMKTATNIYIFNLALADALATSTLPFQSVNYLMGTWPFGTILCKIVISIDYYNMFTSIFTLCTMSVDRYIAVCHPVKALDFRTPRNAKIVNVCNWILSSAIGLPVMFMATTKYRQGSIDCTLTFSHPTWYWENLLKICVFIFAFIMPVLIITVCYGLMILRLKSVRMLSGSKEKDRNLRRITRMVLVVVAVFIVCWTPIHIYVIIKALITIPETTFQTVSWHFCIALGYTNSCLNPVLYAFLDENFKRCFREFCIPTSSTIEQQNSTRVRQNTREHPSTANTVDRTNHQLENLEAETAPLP
pKi: −log10 of the molar value.
recorded metric: pKi

Cc1cc(O)cc(C)c1C[C@H](N)C(=O)N[C@H]1Cc2ccccc2CN([C@@H](CC(=O)O)C(=O)NCc2ccccc2)C1=O: 6.20
Cc1cc(O)cc(C)c1C[C@H](N)C(=O)N[C@H]1Cc2ccccc2CN([C@@H](CCCCN)C(=O)NCc2ccccc2)C1=O: 8.00
Cc1cc(O)cc(C)c1C[C@H](N)C(=O)N[C@@H]1Cc2c([nH]c3ccccc23)CN(CC(=O)NCc2ccccc2)C1=O: 8.47
Cc1cc(O)cc(C)c1C[C@H](N)C(=O)N[C@H]1Cc2c([nH]c3ccccc23)CN(CC(=O)NCc2ccccc2)C1=O: 7.30
Cc1cc(O)cc(C)c1C[C@H](N)C(=O)N[C@H]1Cc2c([nH]c3ccccc23)CN(CC(=O)OCc2ccccc2)C1=O: 6.61
Cc1cc(O)cc(C)c1C[C@H](N)C(=O)N[C@H]1Cc2c([nH]c3ccccc23)CN(CC(=O)O)C1=O: 5.84
Cc1cc(O)cc(C)c1C[C@H](N)C(=O)N[C@H]1Cc2ccccc2CNC1=O: 7.91
Cc1cc(O)cc(C)c1C[C@@H](C(=O)N[C@@H]1Cc2c([nH]c3ccccc23)CN(CC(=O)O)C1=O)N(C)C: 5.00

---

target of assay: Delta-type opioid receptor (Rattus norvegicus, UniProt P33533)
Sequence (P33533 whole entry): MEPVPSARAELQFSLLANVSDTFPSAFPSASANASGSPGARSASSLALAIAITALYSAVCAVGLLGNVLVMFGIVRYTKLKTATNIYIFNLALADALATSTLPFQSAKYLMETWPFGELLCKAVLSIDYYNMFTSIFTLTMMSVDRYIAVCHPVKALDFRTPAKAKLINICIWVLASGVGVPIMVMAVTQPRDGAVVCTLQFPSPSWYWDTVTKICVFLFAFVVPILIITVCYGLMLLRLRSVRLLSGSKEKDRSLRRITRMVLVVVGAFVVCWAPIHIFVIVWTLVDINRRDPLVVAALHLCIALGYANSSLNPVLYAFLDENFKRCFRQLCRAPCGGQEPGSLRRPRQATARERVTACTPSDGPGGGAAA
test description: Displacement of [3H]DPDPE from delta opioid receptor in Sprague-Dawley rat brain synaptosomal membranes
pKi: −log10 of the molar value.
Label Criterion met when pKi is at or above 6; otherwise label Criterion not met.

Cc1cc(O)cc(C)c1C[C@H](N)C(=O)N[C@H]1Cc2c([nH]c3ccccc23)CN(CC(=O)OCc2ccccc2)C1=O: Criterion not met
Cc1cc(O)cc(C)c1C[C@@H](C(=O)N[C@H]1Cc2ccccc2CNC1=O)N(C)C: Criterion met
Cc1cc(O)cc(C)c1C[C@H](N)C(=O)N[C@H]1Cc2ccccc2CNC1=O: Criterion met
Cc1cc(O)cc(C)c1C[C@H](N)C(=O)N[C@@H]1Cc2c([nH]c3ccccc23)CN(CC(=O)NCc2ccccc2)C1=O: Criterion met

---

target of assay: Mu-type opioid receptor (Cavia porcellus)
Sequence (P97266 whole entry): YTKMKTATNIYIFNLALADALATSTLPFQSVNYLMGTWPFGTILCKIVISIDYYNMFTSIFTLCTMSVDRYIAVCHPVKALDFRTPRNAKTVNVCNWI
test description: Agonist activity at mu opioid receptor in Hartley guinea pig assessed as inhibition of electrically evoked ileum contraction by GPI test
Items are presented alongside their recorded IC50.
recorded metric: IC50

Cc1cc(O)cc(C)c1C[C@@H](C(=O)N[C@H]1Cc2ccccc2CNC1=O)N(C)C: > 20 µM
Cc1cc(O)cc(C)c1C[C@H](N)C(=O)N[C@H]1Cc2ccccc2CN([C@@H](CCCCN)C(=O)NCc2ccccc2)C1=O: 3.27 µM
Cc1cc(O)cc(C)c1C[C@H](N)C(=O)N[C@H]1Cc2c([nH]c3ccccc23)CN(CC(=O)NCc2ccccc2)C1=O: 1.8 µM
Cc1cc(O)cc(C)c1C[C@H](N)C(=O)N[C@@H]1Cc2c([nH]c3ccccc23)CN(CC(=O)NCc2ccccc2)C1=O: 0.0149 µM
Cc1cc(O)cc(C)c1C[C@H](N)C(=O)N[C@H]1Cc2ccccc2CNC1=O: 0.631 µM
Cc1cc(O)cc(C)c1C[C@H](N)C(=O)N[C@H]1Cc2c([nH]c3ccccc23)CN(CC(=O)O)C1=O: > 20 µM
Cc1cc(O)cc(C)c1C[C@@H](C(=O)N[C@H]1Cc2c([nH]c3ccccc23)CN(CC(=O)O)C1=O)N(C)C: > 20 µM

---

Species: Rattus norvegicus
test description: Selectivity ratio of Ki for Sprague-Dawley rat delta opioid receptor to Ki for Sprague-Dawley rat mu opioid receptor
recorded metric: Ratio Ki

Cc1cc(O)cc(C)c1C[C@@H](C(=O)N[C@@H]1Cc2c([nH]c3ccccc23)CN(CC(=O)NCc2ccccc2)C1=O)N(C)C: 5
Cc1cc(O)cc(C)c1C[C@H](N)C(=O)N[C@H]1Cc2c([nH]c3ccccc23)CN(CC(=O)NCc2ccccc2)C1=O: 7.2
Cc1cc(O)cc(C)c1C[C@H](N)C(=O)N[C@H]1Cc2c([nH]c3ccccc23)CN(CC(=O)OCc2ccccc2)C1=O: 17
Cc1cc(O)cc(C)c1C[C@H](N)C(=O)N[C@H]1Cc2ccccc2CN([C@@H](CCCCN)C(=O)NCc2ccccc2)C1=O: 29
Cc1cc(O)cc(C)c1C[C@H](N)C(=O)N[C@H]1Cc2ccccc2CN([C@@H](CC(=O)O)C(=O)NCc2ccccc2)C1=O: 2.3
Cc1cc(O)cc(C)c1C[C@H](N)C(=O)N[C@H]1Cc2ccccc2CNC1=O: 30
Cc1cc(O)cc(C)c1C[C@H](N)C(=O)N[C@H]1Cc2ccccc2CN(CC(=O)NCc2ccccc2)C1=O: 24
Cc1cc(O)cc(C)c1C[C@H](N)C(=O)N[C@@H]1Cc2c([nH]c3ccccc23)CN(CC(=O)NCc2ccccc2)C1=O: 48

---

Species on record: Rattus norvegicus
test description: Selectivity ratio of Ki for Sprague-Dawley rat mu opioid receptor to Ki for Sprague-Dawley rat delta opioid receptor
Residues, ends and D or L forms follow the SMILES beside them.
Items are presented alongside their recorded Ratio Ki.
recorded metric: Ratio Ki

Cc1cc(O)cc(C)c1C[C@H](N)C(=O)N[C@@H]1Cc2c([nH]c3ccccc23)CN(CC(=O)O)C1=O: 4
Cc1cc(O)cc(C)c1C[C@@H](C(=O)N[C@H]1Cc2c([nH]c3ccccc23)CN(CC(=O)O)C1=O)N(C)C: 132
Cc1cc(O)cc(C)c1C[C@@H](C(=O)N[C@H]1Cc2ccccc2CNC1=O)N(C)C: 3.2
Cc1cc(O)cc(C)c1C[C@H](N)C(=O)N[C@H]1Cc2c([nH]c3ccccc23)CN(CC(=O)O)C1=O: 1.8
Cc1cc(O)cc(C)c1C[C@H](N)C(=O)N1Cc2ccccc2C[C@H]1C(=O)NCC(=O)NCc1ccccc1 (HELM PEPTIDE1{[Cc1cc(O)cc(C)c1C[C@H](N)C(=O)[*:2]].[Tic].G.[c1ccc(CN[*:1])cc1]}$$$$V2.0): 5.2
Cc1cc(O)cc(C)c1C[C@@H](C(=O)N[C@@H]1Cc2c([nH]c3ccccc23)CN(CC(=O)O)C1=O)N(C)C: 8.8

---

Target or system Mu-type opioid receptor (Rattus norvegicus, UniProt P33535): recorded pKi listed per item.
pKi: −log10 of the molar value.
recorded metric: pKi

Cc1cc(O)cc(C)c1C[C@H](N)C(=O)N[C@H]1Cc2ccccc2CN(CC(=O)NCc2ccccc2)C1=O: 9.34
Cc1cc(O)cc(C)c1C[C@@H](C(=O)N[C@H]1Cc2c([nH]c3ccccc23)CN(CC(=O)O)C1=O)N(C)C: 6.06
Cc1cc(O)cc(C)c1C[C@@H](C(=O)N[C@@H]1Cc2c([nH]c3ccccc23)CN(CC(=O)NCc2ccccc2)C1=O)N(C)C: 6.88
Cc1cc(O)cc(C)c1C[C@H](N)C(=O)N[C@@H]1Cc2c([nH]c3ccccc23)CN(CC(=O)O)C1=O: 5.54
Cc1cc(O)cc(C)c1C[C@@H](C(=O)N[C@H]1Cc2ccccc2CNC1=O)N(C)C: 7.19

---

target of assay: Delta-type opioid receptor (Rattus norvegicus, UniProt P33533)
test description: Displacement of [3H]DPDPE from delta opioid receptor in Sprague-Dawley rat brain synaptosomal membranes
pKi: −log10 of the molar value.
Items are presented alongside their recorded pKi.
recorded metric: pKi

Cc1cc(O)cc(C)c1C[C@H](N)C(=O)N[C@H]1Cc2ccccc2CN([C@@H](CCCCN)C(=O)NCc2ccccc2)C1=O: 6.54
Cc1cc(O)cc(C)c1C[C@@H](C(=O)N[C@H]1Cc2c([nH]c3ccccc23)CN(CC(=O)O)C1=O)N(C)C: 8.18
Cc1cc(O)cc(C)c1C[C@H](N)C(=O)N[C@H]1Cc2c([nH]c3ccccc23)CN(CC(=O)NCc2ccccc2)C1=O: 6.45
Cc1cc(O)cc(C)c1C[C@H](N)C(=O)N[C@H]1Cc2ccccc2CN(CC(=O)NCc2ccccc2)C1=O: 7.96
Cc1cc(O)cc(C)c1C[C@@H](C(=O)N[C@@H]1Cc2c([nH]c3ccccc23)CN(CC(=O)O)C1=O)N(C)C: 5.94

---

target of assay: Delta-type opioid receptor (Rattus norvegicus, UniProt P33533)
test description: Displacement of [3H]DPDPE from delta opioid receptor in Sprague-Dawley rat brain synaptosomal membranes
Items are presented alongside their recorded Ki.
recorded metric: Ki (nM)

Cc1cc(O)cc(C)c1C[C@H](N)C(=O)N[C@@H]1Cc2c([nH]c3ccccc23)CN(CC(=O)O)C1=O: 720
Cc1cc(O)cc(C)c1C[C@H](N)C(=O)N[C@H]1Cc2c([nH]c3ccccc23)CN(CC(=O)O)C1=O: 806
Cc1cc(O)cc(C)c1C[C@@H](C(=O)N[C@@H]1Cc2c([nH]c3ccccc23)CN(CC(=O)NCc2ccccc2)C1=O)N(C)C: 681
Cc1cc(O)cc(C)c1C[C@H](N)C(=O)N[C@H]1Cc2ccccc2CN([C@@H](CC(=O)O)C(=O)NCc2ccccc2)C1=O: 1480
